# Protocol details: gradient 5% acetonitrile 3 min, to 50% in 2 min, to 85% in 15 min, held 3 min, 100 µL/min
# Condition set: column: Zorbax Extend-C18 2.1 x 50 mm; eluents: water / acetonitrile, 0.1% formic acid
Measured endpoint: RP-LC retention time (s)
Answers are plain numbers, in s.

Solved entries (count: 5):
{"columns": ["Compound", "Unit string", "Measured"],
 "data": [
  ["CCCN(CC1CCOC1)C(=O)Nc1ccc(C)c(C)c1 (centres undefined)", "s", 869],
  ["COc1cccc(-c2nc(C3CC(=O)N(c4ccc(Cl)cc4)C3)no2)c1 (centres undefined)", "s", 1050],
  ["O=C(c1cccc(Br)c1)N1CCN(CCn2cccn2)CC1", "s", 554],
  ["Cc1nc(CSc2cc(-c3ccccc3)ncn2)cs1", "s", 907],
  ["Cc1cc(C)cc(NC(=O)C2CCN(S(=O)(=O)c3cc(C(=O)N4CCCC4)n(C)c3)CC2)c1", "s", 843]
]}

Please give RP-LC retention time for each item listed below.
1. COc1cccc(NS(=O)(=O)c2c[nH]c3ncccc23)c1
2. CC(C)(C)C(=O)Nc1nnc(SCc2nnc(-c3ccc4c(c3)OCO4)o2)s1
3. CNC(=O)[C@@H]1C[C@@H](O)CN1C1CCN(C(=O)C2CCCCC2)CC1
4. Cc1ccccc1Nc1c(-c2ccccc2O)nc2cccc(C)n12
5. CCC(=O)N(C1CCOCC1)C1CCN(S(=O)(=O)c2ccc(F)c(C)c2)CC1

Result:
[688, 843, 577, 676, 836]

Please give RP-LC retention time for each item listed below.
1. COc1ccc(OC)c(C2NC(=O)NC(C)=C2C(=O)OCC(F)(F)C(F)(F)F)c1 (centres undefined)
2. CCN(CC)c1ncc2c(n1)CCC(C(=O)Nc1ccc(OC)cc1C)C2 (centres undefined)
3. Cc1nn(CCCC(=O)NCc2ccc3c(c2)OCO3)c(=O)c2nn(-c3ccccc3)c(C)c12
4. CCc1noc(-c2ccc(-n3cnc(C(=O)NC4CCCCC4)c3)nc2)n1
5. Cc1ccccc1Nc1c(-c2ccc(N3CCOCC3)cc2)nc2cccc(C)n12

Result:
1: 801; 2: 674; 3: 704; 4: 1110; 5: 702
